measurement_description: NCI Yeast Anticancer Drug Screen. Data for the bub3 strain (AID 167)
condition_summary: S. cerevisiae bub3 mutant strain, hits give high values; at 50.0 µM unless noted
About 79,000 compounds went through this panel and 15% of them were active in at least one assay; those are over-represented in the sample as a whole.
readout_type: growth inhibition (%)
Numeric answer only, unit % assumed.

Study these solved cases before continuing.
compound	uom	growth inhibition
CNC(=O)OCc1cc(C)cc(C)c1-c1ccco1	%	10.3
COc1cc(Nc2cnc3cc(C(F)(F)F)ccc3n2)cc(OC)c1OC	%	-14.1
Cc1cc(N(CCC#N)CCC#N)ccc1/C=N/NC(=O)c1ccccc1	%	5.95
O=C1OCC/C1=C\c1ccc2c(c1)OCO2	%	-10.2

Request: # query: growth inhibition of entry CCCCS(=O)/C=C\S(=O)CCCC (configuration not stated)
Result: 8.55

Request: Also C/C(=N/NC(N)=S)c1c(C)[nH]c2ccccc12 ?
Result: -45

Request: Also CC(C)CCCC(C)C1CCC2C3CC=C4CC(OC(=O)Nc5ccc(S(=O)(=O)NC6CCCCC6)cc5)CCC4(C)C3CCC12C (configuration not stated) ?
Result: -12.4

###

measurement_description: NCI Yeast Anticancer Drug Screen. Data for the sgs1 mgt1 strain (AID 161);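 further: 0% = growth of cultures given vehicle only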
condition_summary: S. cerevisiae sgs1 mgt1 strain; at 50.0 µM unless noted
Compounds without any hit were thinned out: in the full panel of roughly 79,000, 15% have a hit. Active and inactive are the calls of the source. Rule as the data show it: active = growth inhibition above about 70%; inactive = the rest.
Outcomes you can answer with include only these: active, inactive

molecule	classification
Cc1cc(N(CCC#N)CCC#N)ccc1/C=N/NC(=O)c1ccccc1	inactive

Request: Called result for Cc1ncc(CO)c(/C=N\OCc2cccc(Cl)c2)c1O
Result: inactive

Request: Also COC(=O)C(=O)C(C(=O)OC)C(=O)C(=O)Nc1ccccc1C(N)=O (stereo unspecified) ?
Result: inactive

###

measurement_description: NCI Yeast Anticancer Drug Screen. Data for the rad50 strain (AID 155);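 further: 0% = growth of vehicle-only cultures of the same strain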
condition_summary: S. cerevisiae rad50 strain growth inhibition, hits give high values; at 50.0 µM unless noted
The panel holds about 79,000 compounds, 15% with a hit somewhere; the sample as a whole holds those more often. Where a SMILES comes first, the peptide text is derived from it. [ ]: non-standard residue; d: D form. The star is where a group is joined. ξ: configuration not given here. Cbz = O=C(OCc1ccccc1)*; ξK = NCCCCC(N)C(=O)O
readout_type: growth inhibition (%)
Numeric answer only, unit % assumed.

Study these solved cases before continuing.
molecule	observed_measurement
CCCCCC(=O)OCCSCCOC(=O)CCCCC	4.55
CCSc1[nH]c(Nc2nc(-c3ccccc3)n(-c3ccccc3)n2)c(C(N)=O)c1C(N)=O	-16.9
O=C1CN(c2cccc(Cl)c2)C(=O)CN1/N=C/c1ccco1	18.9
COCCC(=O)OCCC(C)OC (stereo not drawn)	21.6

Request: # query: growth inhibition of entry CCN(CC)CCC(=O)c1ccccc1
Result: -7.5

Request: Also CCCCC(NC(=O)c1ccc2ccccc2n1)C(=O)O (stereo not drawn) ?
Result: -0.35

Request: Also C(CCCC1CO1)CCC1CO1 (stereo not drawn) ?
Result: 24.5

Request: Also CCC(=O)OCC(CC(=O)NCCc1ccccc1)=NCCc1ccccc1 ?
Result: 18.6

Request: Also NCC(=O)NC(CCCCNC(=O)OCc1ccccc1)C(=O)O (stereo not drawn) (H-Gly-[ξK](Cbz)-OH) ?
Result: -6.8

Request: Also O=C1OC(=O)c2c1nc1ccccc1c2-c1ccccc1 ?
Result: -31.5

Request: Also CCc1ccc(NS(=O)(=O)c2ccc(OC)cc2)cc1 ?
Result: 37.9

Request: Also CCCN(CCC)CC(O)c1ccc(Cl)c2ccccc12 (stereo not drawn) ?
Result: 1.85

Request: Also CC1=NN(C(=O)Nc2ccc(Cl)cc2)C(=O)C2CCC(=O)N12 (stereo not drawn) ?
Result: 2.6

###

measurement_description: NCI Yeast Anticancer Drug Screen. Data for the sgs1 mgt1 strain (AID 161);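 further: 0% = growth of cultures given vehicle only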
condition_summary: S. cerevisiae sgs1 mgt1 strain, hits give high values; at 50.0 µM unless noted
The panel holds about 79,000 compounds, 15% with a hit somewhere; the sample as a whole holds those more often.
readout_type: growth inhibition (%)
Numeric answer only, unit % assumed.

Study these solved cases before continuing.
compound	observed_measurement
CCCCCCCCCC(=O)N=C(C(N)=O)C(N)=O	38.5
CCCCOC(=O)COCC(=O)OC(C)C(=O)OCCCC (configuration not stated)	6.55
CC1(CI)COC(c2ccccc2)(C2CCCCC2)OC1 (configuration not stated)	5.2

Request: # query: growth inhibition of entry O=Nc1c(S(=O)(=O)O)cc2cc(S(=O)(=O)O)ccc2c1O
Result: 45.2

Request: Also CCCNCCCCCCNc1cc(OC)cc2cccnc12 ?
Result: 39.7

Request: Also O=C(O)c1cccc(-c2ccccc2)c1O.O=C(O)c1cccc(-c2ccccc2)c1O.[Cu] ?
Result: 21.6

Request: Also CCN(CC)CCNC(=O)c1ccc(I)cc1 ?
Result: -0.9

###

measurement_description: NCI Yeast Anticancer Drug Screen. Data for the mlh1 rad18 strain (AID 175)
condition_summary: S. cerevisiae mlh1 rad18 strain growth inhibition, hits give high values; at 50.0 µM unless noted
The panel holds about 79,000 compounds, 15% with a hit somewhere; the sample as a whole holds those more often.
readout_type: growth inhibition (%)
Numeric answer only, unit % assumed.

compound	growth inhibition, %
CC(C)NC(=O)OCc1c(COC(=O)NC(C)C)c2n(c1Br)CCC2	-51.4
Cc1cc(Cl)ccc1NC(=O)C1C(=O)N(c2ccc(Cl)cc2C)C(=O)/C1=N\N (stereo not given)	9.7
CC(=O)Oc1ccc(N2CC=C(c3ccccc3)CC2)cc1	-4.45
Nc1ncnc(Nc2ccc(Cl)cc2Cl)n1	-7.05

Turning now to a further compound:
Request: # query: growth inhibition of entry Nc1nc(CCc2ccc(NC(=O)CBr)cc2)c(CCCCc2ccccc2)c(=O)[nH]1
Result: 16.2

###

measurement_description: NCI Yeast Anticancer Drug Screen. Data for the bub3 strain (AID 167)
condition_summary: S. cerevisiae bub3 mutant strain; at 50.0 µM unless noted
About 79,000 compounds went through this panel and 15% of them were active in at least one assay; those are over-represented in the sample as a whole. Activity calls are given as the source filed them. Cut-off read from the data, not from the text of the source: active = growth inhibition above about 70%; inactive = the rest.
Outcomes you can answer with include only these: active, inactive

molecule	classification
Cc1nc2ccncc2[nH]1	inactive
O=C(c1ccccc1)c1ccc(O)cc1	inactive
CCNC(=O)c1ccccc1S(C)=O (stereo not drawn)	inactive
Cc1ccc(S(=O)(=O)n2cc(C#N)c(C#N)c2)cc1	inactive
O=C(CCC/C(CC(=O)c1ccc(Br)cc1)=N\O)Nc1ccccc1	inactive

Request: Called result for COC1OC(CO)C(O)C1OS(C)(=O)=O (stereo not drawn)
Result: inactive

Request: Also CN(CC#CC#CCN(C)c1ccccc1)c1ccccc1 ?
Result: inactive

Request: Also N=c1ccccn1CC(O)COc1ccc(Cl)cc1 (stereo not drawn) ?
Result: inactive

Request: Also CN(Cc1ccccc1Cl)C(=S)NC1CCCCC1 ?
Result: active

Request: Also c1ccc2nn(C3CCCO3)nc2c1 (stereo not drawn) ?
Result: inactive

Request: Also OCCCCCSc1ccccc1 ?
Result: inactive

Request: Also N=c1oc(-c2ccccc2)cc2ccccc12 ?
Result: inactive

###

measurement_description: NCI Yeast Anticancer Drug Screen. Data for the bub3 strain (AID 167)
condition_summary: S. cerevisiae bub3 mutant strain, hits give high values; at 50.0 µM unless noted
Description: Growth inhibition of yeast strains with defined genetic alterations is measured as a screen for potential anti-cancer activity. Selected strains with alterations in DNA damage repair or cell cycle control were exposed to compounds and growth inhibition was measured relative to vehicle treated controls. The strain used in this assay is bub3
About 79,000 compounds went through this panel and 15% of them were active in at least one assay; those are over-represented in the sample as a whole.
# growth inhibition >= 10% gives Satisfied, anything below gives Not satisfied

Request: Determine whether this compound has growth inhibition no lower than 10%: O=C(O)CC(c1ccccc1)C(CC(=O)O)c1ccccc1 (configuration not stated)
Result: Not satisfied

Request: Also Cc1cc(C)cc(N(C2=NCCS2)C2=NCCS2)c1 ?
Result: Satisfied

###

# growth inhibition per entry
measurement_description: NCI Yeast Anticancer Drug Screen. Data for the mlh1 rad18 strain (AID 175)
condition_summary: S. cerevisiae mlh1 rad18 strain growth inhibition, hits give high values; at 50.0 µM unless noted
About 79,000 compounds went through this panel and 15% of them were active in at least one assay; those are over-represented in the sample as a whole.
Numeric answer only, unit % assumed.

Study these solved cases before continuing.
compound	readout_type	observed_measurement
CC(C)(C)C1C=C(Sc2ccccc2)C(=O)O1 (stereo not given)	growth inhibition	30.1
COc1ccccc1-n1c(=O)c(N=Nc2ccc(C)cc2)c(O)n(-c2ccccc2C)c1=S	growth inhibition	-37.5
Cn1c([N+](=O)[O-])cnc1CSc1nc(-c2ccccc2)no1	growth inhibition	33.1
Cc1ccccc1N=C(N)N	growth inhibition	-1.95

Turning now to a further compound:
Request: # query: growth inhibition of entry CCN(CC)C(=O)c1c(Cl)cc(N(CC)CC)oc1=O
Result: -54.5
